System: MCMV Smith-GFP
runDescription: microbe, parasite or virus in culture
Type: cell-based, murine CMV
measurementSetup: Human betaherpesvirus 5, in Mus musculus, 120 h, MCMV Smith-GFP, MEF, 1× TCID25^5d, 5 d p.i.; Table 1 summary
Quick reference: pEC50 of the listed items.
Value format note: pEC50 is -log10 of concentration (mol/L); just state the number.

CC(C)(C)c1cnc(CSc2cnc(NC(=O)C3CCN(CC(=O)NCCOCCOCCOCCNc4cccc5c4C(=O)N(C4CCC(=O)NC4=O)C5=O)CC3)s2)o1 (centres unmarked) : 6.68

Problem: For MCMV Smith-GFP, provide pEC50 of "CC(C)(C)c1cnc(CSc2cnc(NC(=O)C3CCNCC3)s2)o1" please.
Solution: 6.54

* * *

Test system: HCMV Merlin
runDescription: HCMV-specific qPCR replication assay in MRC-5 cells
Type: cell-based, Human cytomegalovirus
measurementSetup: Human betaherpesvirus 5, MRC5, 96 h, HCMV Merlin, MRC-5, MOI 0.2, 4 d p.i.; read-out: EC50
parameterMeasured: pEC50
Value format note: pEC50 is -log10 of concentration (mol/L); just state the number.

Problem: Request the reported pEC50 associated with CC(C)(C)c1cnc(CSc2cnc(NC(=O)C3CCN(CC(=O)NCCOCCOCCOCCNc4cccc5c4C(=O)N(C4CCC(=O)NC4=O)C5=O)CC3)s2)o1 (stereo not shown)
Solution: 5.75

* * *

runDescription: in vitro
Assay type: cell-based
measurementSetup: mouse, CC50
Quick reference: CC50 of the listed items.
Lab book: enter the figure in µM, no units written.

CC(C)(C)c1cnc(CSc2cnc(NC(=O)C3CCN(CC(=O)NCCOCCOCCOCCNc4cccc5c4C(=O)N(C4CCC(=O)NC4=O)C5=O)CC3)s2)o1 (centres unmarked) : 1

Problem: Request the reported CC50 associated with "CC(C)(C)c1cnc(CSc2cnc(NC(=O)C3CCNCC3)s2)o1"
Solution: 1.03

* * *

Test system: MCMV Smith-GFP
runDescription: microbe, parasite or virus in culture
Type: cell-based, murine CMV
measurementSetup: Human betaherpesvirus 5, in Mus musculus, 120 h, MCMV Smith-GFP, MEFs, 5 d p.i.; Figure 6 experiment
parameterMeasured: EC50 (nM)
Lab book: enter the figure in nM, no units written.

Problem: Request the reported EC50 associated with CC(C)(C)c1cnc(CSc2cnc(NC(=O)C3CCN(CC(=O)NCCOCCOCCOCCNc4cccc5c4C(=O)N(C4CCC(=O)NC4=O)C5=O)CC3)s2)o1 (stereo not shown) [THAL-SNS032]
Solution: 220

* * *

System: HCMV Merlin
runDescription: HCMV-specific qPCR replication assay in MRC-5 cells
Format: cell-based, Human cytomegalovirus
measurementSetup: Human betaherpesvirus 5, MRC5, 168 h, HCMV Merlin, MRC-5, MOI 0.002, 7 d p.i.; read-out: EC50
parameterMeasured: pEC50
Value format note: pEC50 is -log10 of concentration (mol/L); just state the number.

Problem: Request the reported pEC50 associated with CC(C)(C)c1cnc(CSc2cnc(NC(=O)C3CCN(CC(=O)NCCOCCOCCOCCNc4cccc5c4C(=O)N(C4CCC(=O)NC4=O)C5=O)CC3)s2)o1 (stereo not shown)
Solution: 6.24

Value source: paper PMC8657773
